target: h5HT2a (Homo sapiens); experiment: cell-based; settings: Ca2+ release, CHO-K1 h5HT2a, 0.1 nM-10 μM, 1 min
Sequence (P28223 whole entry): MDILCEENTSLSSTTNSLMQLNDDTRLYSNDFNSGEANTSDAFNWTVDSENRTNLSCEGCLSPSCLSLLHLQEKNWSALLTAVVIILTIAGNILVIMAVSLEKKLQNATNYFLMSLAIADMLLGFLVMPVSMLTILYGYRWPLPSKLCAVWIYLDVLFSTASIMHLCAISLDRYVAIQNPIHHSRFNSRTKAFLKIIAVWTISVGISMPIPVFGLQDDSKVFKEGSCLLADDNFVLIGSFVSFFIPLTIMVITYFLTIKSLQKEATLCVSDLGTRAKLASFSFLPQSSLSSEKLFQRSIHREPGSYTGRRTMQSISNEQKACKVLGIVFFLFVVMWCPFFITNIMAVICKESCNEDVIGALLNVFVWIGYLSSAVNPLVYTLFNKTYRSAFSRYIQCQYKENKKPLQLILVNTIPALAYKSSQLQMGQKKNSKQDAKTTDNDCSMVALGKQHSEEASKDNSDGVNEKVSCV
VALUE KIND: pEC50
Numbers only, as −log10 of the molar value.

Can you look up pEC50 on h5HT2a (Homo sapiens) for CN(C)CCc1c[nH]c2cccc(OP(=O)(O)O)c12 ?
5.82
